Target: Cyclin-dependent kinase 9 (Homo sapiens, UniProt P50750)
Sequence (P50750 whole entry): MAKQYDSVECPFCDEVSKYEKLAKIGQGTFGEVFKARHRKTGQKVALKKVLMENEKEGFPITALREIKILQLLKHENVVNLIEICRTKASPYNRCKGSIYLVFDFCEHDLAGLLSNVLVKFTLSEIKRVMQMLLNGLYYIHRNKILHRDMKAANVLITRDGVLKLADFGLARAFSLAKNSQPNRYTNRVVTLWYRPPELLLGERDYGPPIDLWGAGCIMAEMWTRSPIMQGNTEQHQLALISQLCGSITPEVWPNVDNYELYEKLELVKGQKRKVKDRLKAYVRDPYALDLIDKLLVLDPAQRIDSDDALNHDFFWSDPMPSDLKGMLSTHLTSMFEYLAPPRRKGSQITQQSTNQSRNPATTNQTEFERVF
Experiment: Induction of HyT-mediated degradation of CDK9 in human 22Rv1 cells at 0.3 to 3 uM incubated for 24 hrs by immunoblot analysis
Format: cell-based
Conditions: dose 0.3-3 µM
Active and inactive are the calls of the source. The rule behind the calls is not given here.
measured property: Activity

[[record]]
mol_smiles = "CC(C)[C@@H]1CC[C@@H](C)C[C@H]1OCC(=O)NCCN1CCC(C(=O)Nc2ncc(SCc3ncc(C(C)(C)C)o3)s2)CC1"
result = "Active"

[[record]]
mol_smiles = "CC(C)[C@@H]1CC[C@@H](C)C[C@H]1OCC(=O)NCCOCCS(=O)(=O)N1CCC(C(=O)Nc2ncc(SCc3ncc(C(C)(C)C)o3)s2)CC1"
result = "Active"

[[record]]
mol_smiles = "CC(C)(C)OC(=O)NC(=NCCC[C@@H](NC(=O)OC(C)(C)C)C(=O)NCCS(=O)(=O)N1CCC(C(=O)Nc2ncc(SCc3ncc(C(C)(C)C)o3)s2)CC1)NC(=O)OC(C)(C)C"
result = "Active"


Taken from ChEMBL document CHEMBL5113511.
